# PROTOCOL: Caco-2 membrane permeability, improved method as used in the following Examples (96-well, 20 to 24 h preincubation)
# Assay type: in vitro ADME
# CONDITIONS USED: human, Caco-2, Caco-2 (cm/sec)
Positions of bridges follow the written chain, without caps; N, C: chain ends. Non-standard residues stand in square brackets, D forms with d. Residues, ends and D or L forms follow the SMILES beside them. *: point of attachment. NMeF = CN[C@@H](Cc1ccccc1)C(=O)O; NMeL = CN[C@@H](CC(C)C)C(=O)O; NMeA = CN[C@@H](C)C(=O)O; Piperidide = C1CCN(*)CC1
PROPERTY MEASURED: Papp A→B at 180 min (×10⁻⁶ cm/s)
Please respond with the number in ×10⁻⁶ cm/s and leave the unit unwritten.

Req: If you can, please state the reported Papp A→B at 180 min value of CC(C)C[C@H]1C(=O)N(C)[C@@H](Cc2ccccc2)C(=O)N(C)[C@@H](CC(C)C)C(=O)N[C@H](C(=O)N(C)[C@@H](Cc2ccccc2)C(=O)N[C@@H](Cc2ccccc2)C(=O)N2CCCCC2)CC(=O)N[C@@H](C(C)C)C(=O)N[C@@H](C)C(=O)N[C@@H]([C@@H](C)O)C(=O)N(C)[C@@H](C)C(=O)N[C@@H](Cc2ccccc2)C(=O)N1C [pd241] (VAT[NMeA]F[NMeL][NMeF][NMeL]D[NMeF]F-Piperidide; lactam N-9) .
Resp: 0.058

###

# PROTOCOL: Caco-2 membrane permeability, improved method as used in the following Examples (96-well, 20 to 24 h preincubation)
# Type: in vitro ADME
# CONDITIONS USED: human, Caco-2, Caco-2 (cm/sec)
Starred links: 1 amine or outer side, 2 acyl side, 3 side chain; linkers in the order of their positions; H or OH if unused. Positions of bridges follow the written chain, without caps; N, C: chain ends. Non-standard residues stand in square brackets, D forms with d. Residues, ends and D or L forms follow the SMILES beside them. *: point of attachment. NMePhe(3-Cl) = CN[C@@H](Cc1cccc(Cl)c1)C(=O)O; NMeW = CN[C@@H](Cc1c[nH]c2ccccc12)C(=O)O; NMeF = CN[C@@H](Cc1ccccc1)C(=O)O; NMeGABA = CN(CCCC(=O)[*:2])[*:1]; NMeD = CN[C@@H](CC(=O)O)C(=O)O; NMeL = CN[C@@H](CC(C)C)C(=O)O; NMeV = CN[C@H](C(=O)O)C(C)C; Piperidide = C1CCN(*)CC1; dNMeA = CN[C@H](C)C(=O)O; Sar = CNCC(=O)O; tBu = CC(C)(C)*
PROPERTY MEASURED: Papp A→B at 180 min (×10⁻⁶ cm/s)
Please respond with the number in ×10⁻⁶ cm/s and leave the unit unwritten.

Req: If you can, please state the reported Papp A→B at 180 min value of CC(C)C[C@H]1C(=O)N[C@@H](COC(C)(C)C)C(=O)N(C)[C@@H](Cc2ccccc2)C(=O)N(C)[C@@H](CC(C)C)C(=O)N[C@H](C(=O)N2CCCCC2)CC(=O)N[C@H](C(C)C)C(=O)N(C)[C@@H](Cc2ccccc2)C(=O)N[C@@H](C(C)C)C(=O)N(C)[C@@H](Cc2ccccc2)C(=O)N[C@@H]([C@@H](C)O)C(=O)N(C)CC(=O)N1C [pd210] ([dV][NMeF]V[NMeF]T[Sar][NMeL]S(tBu)[NMeF][NMeL]D-Piperidide; lactam N-11) .
Resp: 1.6

Req: If you can, please state the reported Papp A→B at 180 min value of CC[C@H](C)[C@@H]1NC(=O)[C@H](CC(C)C)N(C)C(=O)CCCN(C)C(=O)C[C@@H](C(=O)N2CCCCC2)NC(=O)[C@H](CC(C)C)N(C)C(=O)[C@H](CC(C)C)N(C)C(=O)[C@H]([C@@H](C)O)NC(=O)[C@H](CC(C)C)N(C)C(=O)[C@H](COC(C)(C)C)NC(=O)[C@H](Cc2c[nH]c3ccccc23)N(C)C(=O)[C@H](Cc2ccccc2)N(C)C1=O [pd107] ([NMeGABA][NMeL]I[NMeF][NMeW]S(tBu)[NMeL]T[NMeL][NMeL]D-Piperidide; lactam N-11) .
Resp: 0.17

Req: If you can, please state the reported Papp A→B at 180 min value of CC[C@H](C)[C@@H]1NC(=O)[C@H](Cc2ccccc2)N(C)C(=O)CN(C)C(=O)C[C@@H](C(=O)N2CCCCC2)NC(=O)[C@H](C(C)C)N(C)C(=O)[C@H](COC(C)(C)C)NC(=O)[C@H](CC(C)C)N(C)C(=O)[C@H](Cc2ccccc2)N(C)C(=O)CN(C)C(=O)[C@H]([C@@H](C)O)NC(=O)[C@H](Cc2ccccc2)N(C)C1=O [pd205] ([Sar][NMeF]I[NMeF]T[Sar][NMeF][NMeL]S(tBu)[NMeV]D-Piperidide; lactam N-11) .
Resp: 1.8

Req: If you can, please state the reported Papp A→B at 180 min value of CC(C)C[C@@H]1NC(=O)[C@H](Cc2ccccc2)N(C)C(=O)[C@@H](C)N(C)C(=O)C[C@@H](C(=O)N2CCCCC2)N(C)C(=O)[C@H](Cc2ccccc2)N(C)C(=O)[C@H](Cc2ccccc2)N(C)C(=O)[C@H](COC(C)(C)C)NC(=O)[C@H](C(C)C)N(C)C(=O)CN(C)C(=O)[C@H]([C@@H](C)O)NC(=O)[C@H](CC(C)C)N(C)C1=O [pd199] ([dNMeA][NMeF]L[NMeL]T[Sar][NMeV]S(tBu)[NMeF][NMeF][NMeD]-Piperidide; lactam N-11) .
Resp: 2.6

Req: If you can, please state the reported Papp A→B at 180 min value of CC(C)C[C@H]1C(=O)N[C@@H](COC(C)(C)C)C(=O)N(C)[C@@H](Cc2ccccc2)C(=O)N(C)[C@@H](CC(C)C)C(=O)N(C)[C@H](C(=O)N2CCCCC2)CC(=O)N(C)[C@H](C)C(=O)N(C)[C@@H](Cc2cccc(Cl)c2)C(=O)N[C@@H](C(C)C)C(=O)N(C)[C@@H](C(C)C)C(=O)N[C@@H]([C@@H](C)O)C(=O)N(C)CC(=O)N1C [pd168] ([dNMeA][NMePhe(3-Cl)]V[NMeV]T[Sar][NMeL]S(tBu)[NMeF][NMeL][NMeD]-Piperidide; lactam N-11) .
Resp: 2.3

Taken from patent US20200131669A1.
